Ref: patent US20250257034A1

- measured_on: human 5-HT2A receptor (Homo sapiens, UniProt P28223)
- Sequence (P28223 whole entry): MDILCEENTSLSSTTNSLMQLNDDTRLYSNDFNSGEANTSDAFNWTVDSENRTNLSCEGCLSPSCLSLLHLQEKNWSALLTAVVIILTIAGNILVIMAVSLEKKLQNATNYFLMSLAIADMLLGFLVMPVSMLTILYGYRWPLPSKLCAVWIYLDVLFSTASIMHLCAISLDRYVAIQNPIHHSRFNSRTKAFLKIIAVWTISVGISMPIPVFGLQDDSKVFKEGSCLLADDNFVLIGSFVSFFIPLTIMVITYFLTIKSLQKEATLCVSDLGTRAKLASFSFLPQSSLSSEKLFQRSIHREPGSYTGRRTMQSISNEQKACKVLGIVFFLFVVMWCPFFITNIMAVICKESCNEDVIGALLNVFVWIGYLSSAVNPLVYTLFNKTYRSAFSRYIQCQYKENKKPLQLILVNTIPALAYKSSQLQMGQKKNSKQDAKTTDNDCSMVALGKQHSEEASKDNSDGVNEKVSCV
- assay_text: Human 5-HT2A functional FLIPR assay (agonist mode)
- Assay type: cell-based
- Design: expressed in transfected cells; host or cells: HTR2A&Gα15-HEK293 (tetracycline induction)
- condition_details: @10 μM, RFU=Fmax−Fmin (Table 9)
measurement_label: RFU@10 μM

Look up RFU@10 μM for the entries below, preserving their order.
1. CSc1ccc2[nH]cc(CCN(C(C)C)C(C)C)c2c1 [Compound I-17]
2. CCN(C)CCc1c[nH]c2ccc(SC)cc12 [Compound I-13]

1: 8,546 RFU; 2: 726 RFU

====

- assay_text: Rat liver microsomes stability
- Assay type: in vitro ADME
- condition_details: rat liver microsomes, With Cofactors, 30 min
For each entry below, report its Remaining Percentage (%) value.

CN(CCOC(F)F)CCc1c[nH]c2ccccc12: 0.00%
CN(C)CCc1c[nH]c2ccc(OCCOC(F)F)cc12: 6.09%
COc1ccc2[nH]cc(CCN(C)C)c2c1: 2.57%
COc1ccc2[nH]cc(CCN3CC[C@@H](OC)C3)c2c1 [(R) I-66]: 22.22%

Now consider the entry below.
Value lookup for Remaining Percentage (%); key = COc1ccc2[nH]cc(CCN3CC[C@H](OC(F)F)C3)c2c1 [(S) I-67] 0.00%

====

- assay_text: Mouse liver microsomes stability
- Type: in vitro ADME
- condition_details: mouse liver microsomes, Without Cofactors, 30 min
- Protocol: The objective of this study was to estimate in vitro metabolic stability of exemplary compounds of Formula (I) or a pharmaceutically acceptable salt, solvate, and/or prodrug thereof in pooled human, male rat, and male mouse liver microsomes. The concentrations of compounds in reaction systems were evaluated by LC-MS/MS for estimating the stability in pooled human, male rat, and male mouse liver microsomes. The in vitro intrinsic clearances of test compounds were determined as well. […]
measurement_label: Remaining Percentage (%)
Numbers only, in %.

COc1ccc2[nH]cc(CCN3CC[C@@H](OC)C3)c2c1 [(R) I-66]: 104.20
COc1ccc2[nH]cc(CCN3CC[C@H](OC(F)F)C3)c2c1 [(S) I-67]: 103.46
COc1ccc2[nH]cc(CCN(C)C)c2c1: 104.76
COc1ccc2[nH]cc(CCN3CC[C@@H](OC(F)F)C3)c2c1 [(R) I-67]: 103.14
CN(CCOC(F)F)CCc1c[nH]c2ccccc12: 95.65
CN(C)CCc1c[nH]c2ccc(OCCOC(F)F)cc12: 89.52

Look up Remaining Percentage (%) for the entries below, preserving their order.
1. O=C(O)Cc1ccccc1Nc1c(Cl)cccc1Cl
2. COc1ccc2[nH]cc(CCN(C)CCOC(F)F)c2c1

1: 89.49; 2: 105.81

====

- assay_text: Human liver microsomes stability
- Format: in vitro ADME
- condition_details: human liver microsomes, Without Cofactors, 0 min
measurement_label: Remaining Percentage (%)
Numbers only, in %.

COc1ccc2[nH]cc(CCN(C)CCOC(F)F)c2c1: 100.00

Look up Remaining Percentage (%) for the entries below, preserving their order.
1. CN(CCOC(F)F)CCc1c[nH]c2ccccc12
2. COc1ccc2[nH]cc(CCN(C)C)c2c1

1: 100.00; 2: 100.00

====

- measured_on: human 5-HT2C receptor (Homo sapiens, UniProt P28335)
- Construct: expressed in transfected cells; host or cells: U2OS, stably transfected
- Sequence (P28335 33-458): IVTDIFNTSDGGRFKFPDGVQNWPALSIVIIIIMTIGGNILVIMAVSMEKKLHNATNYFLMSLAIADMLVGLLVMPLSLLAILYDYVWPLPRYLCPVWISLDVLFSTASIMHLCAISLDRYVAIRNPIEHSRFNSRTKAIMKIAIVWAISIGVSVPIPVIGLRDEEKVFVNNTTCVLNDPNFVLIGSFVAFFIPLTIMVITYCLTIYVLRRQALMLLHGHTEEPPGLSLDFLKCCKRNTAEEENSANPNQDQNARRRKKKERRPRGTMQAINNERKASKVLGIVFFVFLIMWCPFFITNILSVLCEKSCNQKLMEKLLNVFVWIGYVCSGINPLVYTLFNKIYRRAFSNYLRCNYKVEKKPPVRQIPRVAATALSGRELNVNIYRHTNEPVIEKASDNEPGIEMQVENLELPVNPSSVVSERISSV
- assay_text: cell-based
- condition_details: FLIPR calcium mobilization, U2OS cells
measurement_label: pEC50
Numbers only, as −log10 of the molar value.

Value lookup for pEC50; key = COc1ccc2[nH]cc(CCN3CC[C@H](OC(F)F)C3)c2c1 [(S) I-67] 5.57
